# target.of.assay: PDGF-receptor beta enzyme comprising the tyrosine kinase domain (Homo sapiens, UniProt P09619)
# Construct: from amino acid 545 to 1106 of GenBank Access NO: AAA36427
# Sequence (P09619 545-1106): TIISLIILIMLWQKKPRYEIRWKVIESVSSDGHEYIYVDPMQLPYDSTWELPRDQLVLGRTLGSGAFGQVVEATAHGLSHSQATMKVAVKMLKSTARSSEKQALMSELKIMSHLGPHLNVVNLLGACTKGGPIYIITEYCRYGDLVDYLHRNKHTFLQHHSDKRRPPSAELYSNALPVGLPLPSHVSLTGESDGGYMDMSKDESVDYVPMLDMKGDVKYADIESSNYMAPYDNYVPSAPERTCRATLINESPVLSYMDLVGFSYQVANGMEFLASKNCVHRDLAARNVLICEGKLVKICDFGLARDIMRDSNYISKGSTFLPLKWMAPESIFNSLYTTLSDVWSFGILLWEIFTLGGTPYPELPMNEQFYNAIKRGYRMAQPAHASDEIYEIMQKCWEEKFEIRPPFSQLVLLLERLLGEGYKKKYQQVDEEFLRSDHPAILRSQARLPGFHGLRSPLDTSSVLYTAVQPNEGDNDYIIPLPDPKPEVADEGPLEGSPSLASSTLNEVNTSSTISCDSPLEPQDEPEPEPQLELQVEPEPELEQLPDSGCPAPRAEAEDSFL
# method.description: Inhibition of PDGF-receptor kinase activity (cell-free, PLC1 peptide, 33P Flashplate)
# Assay type: biochemical
# condition.details: PDGF-R kinase activity; compound at 10 uM; read-out: Percent Inhibition @ 10 uM
# Description: PDGF-R kinase activity was assayed by its ability to phosphorylate one of its target proteins, PLCγ, in a cell-free system, in particular, a PLC1 peptide comprising the tyrosine residue where the phosphorylation occurs was used for the assay. […] In order to test the potency of inhibition of present compounds, an IC50 for an individual compound was measured using the above procedure. […]
measurement.label: inhibition at 10 µM

[[record]]
smiles_repr = "COc1cc2c(cc1OC)C(C)(C)c1c-2n[nH]c1Nc1cccc(Br)c1"
result = "32%"

[[record]]
smiles_repr = "COc1cc2c(cc1OC)-c1n[nH]c(Nc3cccnc3)c1C2"
result = "107%"

[[record]]
smiles_repr = "COCCOC(=O)n1nc2c(c1Nc1cccc(F)c1)Cc1cc(OC)c(OC)cc1-2"
result = "83.5%"

[[record]]
smiles_repr = "COc1cc2c(cc1OC)-c1n[nH]c(Nc3cccc(O)c3)c1C2"
result = "74%"


Now look at this one.
Can you look up the measured inhibition at 10 µM of Fc1cccc(F)c1CNc1[nH]nc2c1Cc1c(OCCCN3CCOCC3)cccc1-2 for me?
80.5%

====

# target.of.assay: PDGF-receptor beta enzyme comprising the tyrosine kinase domain (Homo sapiens, UniProt P09619)
# Construct: from amino acid 545 to 1106 of GenBank Access NO: AAA36427
# method.description: Inhibition of PDGF-receptor kinase activity (cell-free, PLC1 peptide, 33P Flashplate)
# Assay type: biochemical
# condition.details: PDGF-R kinase activity; read-out: IC50
So basically: is IC50 under 1000 nM? Then criterion met. Not under? Then criterion not met.

Below, 3 compounds whose answers are already recorded.
[[record]]
compound = "COc1ccc(OC)c(Nc2[nH]nc3c2Cc2ccc(C)cc2-3)c1 [Compound 184]"
answer_label = "criterion not met"

[[record]]
compound = "FC(F)(F)Oc1cccc(Nc2[nH]nc3c2Cc2cc(Br)ccc2-3)c1 [Compound 154]"
answer_label = "criterion not met"

[[record]]
compound = "CC(O)c1cccc(Nc2[nH]nc3c2Cc2cc(F)ccc2-3)c1 (stereo not drawn) [Compound 289]"
answer_label = "criterion met"


Next compound, please.
Is IC50 of Fc1ccc(Nc2[nH]nc3c2Cc2cc(F)ccc2-3)cc1 [Compound 201] strictly below 1000 nM?
criterion met

====

Quick list: inhibition at 10 µM per entry.
# target.of.assay: PDGF-receptor beta enzyme comprising the tyrosine kinase domain (Homo sapiens, UniProt P09619)
# Construct: from amino acid 545 to 1106 of GenBank Access NO: AAA36427
# method.description: Inhibition of PDGF-receptor kinase activity (cell-free, PLC1 peptide, 33P Flashplate)
# Type: biochemical
# condition.details: PDGF-R kinase activity; compound at 10 uM; read-out: Percent Inhibition @ 10 uM
I'd appreciate it if you included the unit after the number.

Solved entries (count: 8):
[[record]]
compound = "Cc1cccc2c1Cc1c-2n[nH]c1Nc1cccnc1"
result = "81%"

[[record]]
compound = "CCOc1cccc(Nc2[nH]nc3c2C(C)(C)c2cc(OC)c(OC)cc2-3)c1"
result = "25.5%"

[[record]]
compound = "FC(F)(F)c1cc(Nc2[nH]nc3c2Cc2cc(Cl)ccc2-3)cc(C(F)(F)F)c1"
result = "76%"

[[record]]
compound = "CCOC(=O)CCC(=O)n1nc(Nc2cccc(F)c2)c2c1-c1cc(OC)c(OC)cc1C2"
result = "72%"

[[record]]
compound = "OCC(O)COc1cccc2c1Cc1c-2n[nH]c1Nc1cccc(F)c1 (centres unmarked)"
result = "96%"

[[record]]
compound = "COc1cc2c(c3nc(C)oc13)CC1C(Nc3cccc(F)c3)=NN=C21 (centres unmarked)"
result = "97.5%"

[[record]]
compound = "COc1cc2c(cc1OCCCO)Cc1c-2n[nH]c1NCc1ccccc1F"
result = "95.5%"

[[record]]
compound = "Fc1cccc(Nc2n[nH]c3c2Cc2sccc2-3)c1"
result = "100%"


Can you look up the measured inhibition at 10 µM of Cc1ccc2c(c1)-c1n[nH]c(Nc3cccc(C(C)O)c3)c1C2 (centres unmarked) for me?
95.5%

Can you look up the measured inhibition at 10 µM of CCC(=O)n1nc(Nc2cccc(F)c2)c2c1-c1cc(OC)c(OC)cc1C2 for me?
61.5%

Can you look up the measured inhibition at 10 µM of COc1ccc2c(c1)Cc1c-2n[nH]c1Nc1ccc(OC(F)(F)F)cc1 for me?
42%

Can you look up the measured inhibition at 10 µM of COc1cc2c(cc1OC)-c1n[nH]c(Nc3cccc(C(N)=O)c3)c1C2 for me?
96%

Can you look up the measured inhibition at 10 µM of COc1cc2c(cc1OCCCO)Cc1c-2n[nH]c1Nc1cccc(Cl)c1 for me?
84%

Can you look up the measured inhibition at 10 µM of COc1cc(Nc2[nH]nc3c2Cc2c(OC)cccc2-3)cc(C(F)(F)F)c1 for me?
27.5%

Can you look up the measured inhibition at 10 µM of Fc1ccc2c(c1)Cc1c-2n[nH]c1Nc1ccc(C(F)(F)F)cc1 for me?
88%

Can you look up the measured inhibition at 10 µM of CCOc1cccc(Nc2[nH]nc3c2Cc2c(OCCCO)cccc2-3)c1 for me?
96%

Can you look up the measured inhibition at 10 µM of COc1cc2c(cc1F)Cc1c-2n[nH]c1Nc1ccc(F)c(Cl)c1 for me?
98.5%

Can you look up the measured inhibition at 10 µM of CNC(=S)n1nc2c(c1Nc1cccc(F)c1)Cc1cc(OC)c(OC)cc1-2 for me?
93%

Can you look up the measured inhibition at 10 µM of Fc1cccc(Nc2[nH]nc3c2Cc2ccc(F)cc2-3)c1 for me?
99.5%

Can you look up the measured inhibition at 10 µM of Oc1cc2c(cc1O)-c1n[nH]c(Nc3cccc(Br)c3)c1C2 for me?
71%

Can you look up the measured inhibition at 10 µM of COc1cc2c(cc1OC)-c1n[nH]c(Nc3cc(C)cc(C)n3)c1C2 for me?
103%

Can you look up the measured inhibition at 10 µM of COc1cc2c(cc1OC)-c1n[nH]c(Nc3cc(F)cc(F)c3)c1C2 for me?
89%

Can you look up the measured inhibition at 10 µM of COCCCOc1cc2c(cc1OCCCOC)-c1n[nH]c(Nc3cccc(Cl)c3)c1C2 for me?
18.5%

Can you look up the measured inhibition at 10 µM of COc1cc2c(cc1OC)-c1c(c(Nc3cccc(F)c3)nn1C(=O)NCCNC(C)=O)C2 for me?
73%

Can you look up the measured inhibition at 10 µM of COc1ccc(OC)c(Nc2[nH]nc3c2Cc2c(C)cccc2-3)c1 for me?
52%

====

# target.of.assay: PDGF-receptor beta enzyme comprising the tyrosine kinase domain (Homo sapiens)
# Construct: from amino acid 545 to 1106 of GenBank Access NO: AAA36427
# method.description: Inhibition of PDGF-receptor kinase activity (cell-free, PLC1 peptide, 33P Flashplate)
# Assay type: biochemical
# condition.details: PDGF-R kinase activity; read-out: IC50
So basically: is IC50 under 0.07 µM? Then true. Not under? Then false.

Below, 8 molecules whose answers are already recorded.
[[record]]
molecule = "CCOc1cc2c(cc1OCC(O)CN1CCCC1)-c1n[nH]c(Nc3cccc(OC)c3)c1C2 (stereo not drawn)"
answer_label = "true"

[[record]]
molecule = "Cc1ccc2c(c1)-c1n[nH]c(Nc3ccc4[nH]ccc4c3)c1C2"
answer_label = "false"

[[record]]
molecule = "COc1cc2c(cc1OC)-c1n[nH]c(Nc3cccc(Br)c3)c1C2"
answer_label = "true"

[[record]]
molecule = "Fc1ccc2c(c1)Cc1c-2n[nH]c1Nc1ccc2[nH]ccc2c1"
answer_label = "true"

[[record]]
molecule = "COc1cccc2c1Cc1c-2n[nH]c1NCc1c(F)cccc1F"
answer_label = "false"

[[record]]
molecule = "Fc1ccc2c(c1)Cc1c-2n[nH]c1NCc1ccc(F)c(F)c1"
answer_label = "false"

[[record]]
molecule = "Cc1ccc2c(c1)-c1n[nH]c(Nc3ccccc3)c1C2"
answer_label = "true"

[[record]]
molecule = "COc1ccc(Nc2[nH]nc3c2Cc2ccc(C)cc2-3)cc1Cl"
answer_label = "true"


Is IC50 of COc1cc2c(cc1OC)-c1c(c(Nc3cccc(F)c3)nn1C(=O)Oc1ccc(Cl)cc1)C2 strictly below 0.07 µM?
false

Is IC50 of CCOc1cc2c(cc1OCC(O)CN1CCCC1)-c1n[nH]c(Nc3cccc(F)c3)c1C2 (stereo not drawn) strictly below 0.07 µM?
true
